- ASSAY SYSTEM: Rat EphA2 (Rat, UniProt D3ZBN3 23-538, biotinylated, 1.4 mol biotin/monomer)
- ASSAY PROCEDURE: SPR, biotinylated EphA2 on streptavidin chip
ASSAY READOUT: pKd
Answer as the number alone; pKd is minus log10 of concentration in mol/L.

AXDCPLVNPLCLHPGWTC (not fully specified; N-terminal (β-Ala)-Sar10 spacer precedes SEQ ID NO: 11; HArg (homoarginine) at residue 2 of SEQ ID NO: 11; three Cys cyclised on the TATA scaffold; DM1-SS(SO3H)- (DM1-SO3H-SPDB) on the N-terminal amine) [BCY6082] | 7.54

The record that follows has no pKd shown yet.
// query Reported pKd, binder AXDCPLVNPLCLHPGWTC (not fully specified; N-terminal (β-Ala)-Sar10 spacer precedes SEQ ID NO: 11; HArg (homoarginine) at residue 2 of SEQ ID NO: 11; three Cys cyclised on the TATA scaffold; ValCit-MMAE (MMAE-PABC-Cit-Val-glutarate) on the N-terminal amine) [BCY6033] : ____
// result 6.78
